- Assay target: human recombinant ADAMTS-5 (Homo sapiens, UniProt Q9UNA0)
- Construct: human recombinant ADAMTS-5 in which 6×His tag was added to the C-end side of Asn624; 6xHis (C); made in house
- Sequence (Q9UNA0 262-624 limits assumed): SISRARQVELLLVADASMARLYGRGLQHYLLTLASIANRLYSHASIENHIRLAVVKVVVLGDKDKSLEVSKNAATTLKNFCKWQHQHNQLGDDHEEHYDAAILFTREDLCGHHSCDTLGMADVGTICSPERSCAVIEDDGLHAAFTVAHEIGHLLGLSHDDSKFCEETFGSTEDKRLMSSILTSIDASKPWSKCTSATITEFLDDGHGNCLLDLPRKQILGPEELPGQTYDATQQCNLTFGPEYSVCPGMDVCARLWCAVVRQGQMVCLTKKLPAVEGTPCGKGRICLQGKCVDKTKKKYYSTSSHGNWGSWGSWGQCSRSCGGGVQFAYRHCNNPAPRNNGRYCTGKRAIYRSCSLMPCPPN
- Run description: Inhibitory action for ADAMTS-5 (aggrecanase) activity, FRET assay with aggrecan interglobular domain peptide
- Type: biochemical
- Condition summary: human recombinant ADAMTS-5, 37° C. for 60 minutes; read-out: ADAMTS-5 IC50
Readout label: IC50 (nM)
Provide the reading as a plain figure in nM.

Look over these answered cases.
>  <Molecule>
O=C(NO)C(C1CCCCC1)N1Cc2sc(-c3ccccc3)cc2S1(=O)=O (centres unmarked)

>  <IC50 / nM>
2000

$$$$
>  <Molecule>
O=C(NO)C(c1ccccc1)N1Cc2sc(-c3ccccc3)cc2S1(=O)=O (centres unmarked)

>  <IC50 / nM>
7000

$$$$
>  <Molecule>
CC(C(=O)NO)N1Cc2sc(-c3ccccc3)cc2S1(=O)=O (centres unmarked)

>  <IC50 / nM>
4000

$$$$
>  <Molecule>
CCC(C(=O)NO)N1Cc2sc(-c3ccccc3)cc2S1(=O)=O (centres unmarked)

>  <IC50 / nM>
2000

$$$$

Exercise: Return reported IC50; argument: CC(C)C(C(=O)NO)N1Cc2sc(-c3ccccc3)cc2S1(=O)=O (centres unmarked)
Solution: 2100
